- Test system: SNB-75 CNS
- method-notes: NCI tumour cell line growth inhibition, 48 h
measured-metric: TGI (µM)

# smiles-repr, unit-symbol, censoring-sign, value
data = [
    ("Cn1cc(-c2nc(-c3c[nH]c4ccccc34)cs2)c2cccnc21", "µM", "=", 0.779),
    ("O=C(Nc1cccc(Cl)c1)Nc1cc(C(F)(F)F)ccc1Cl", "µM", "=", 6.48),
    ("Cc1nc2cc3[nH]c4ccccc4c(=O)c3cc2s1", "µM", ">", 100),
    ("c1ccc2cc(Cn3c(-c4cccc5ccccc45)[n+](Cc4ccc5ccccc5c4)c4c5ccccc5c5ccccc5c43)ccc2c1", "µM", "=", 1.19),
    ("Clc1ccc(CCNCCNC2(c3cc4ccccc4s3)CCCCC2)cc1Cl", "µM", "=", 3.72),
]
